The measurements presented in this section are drawn from ChEMBL document CHEMBL4613243.

# System: HeLa
# assay-explanation: Antiproliferative activity against human HeLa cells assessed as reduction in cell viability after 72 hrs by WST-8 assay
# Assay type: functional, cell-based
experimental-endpoint: pIC50
Give bare numbers, as −log10 of the molar value.

Enter reported pIC50 observed with HeLa for "C[C@]12CC[C@H]3[C@@H](CC[C@@H]4C[C@H](O[C@@H]5O[C@H](CO)[C@@H](O)[C@@H](O[C@H]6O[C@H](CO)[C@@H](O)[C@H](O)[C@H]6O)[C@H]5O)CC[C@@]43CO)[C@@]1(O)CC[C@@H]2C1=CC(=O)OC1" 6.77

---

# Tested on: PANC-1
# assay-explanation: Antiproliferative activity against human PANC1 cells assessed as reduction in cell viability after 72 hrs by WST-8 assay
# Format: functional, cell-based
# condition-notes: PANC-1, 72 h
experimental-endpoint: IC50 (µM)
Give bare numbers, in µM.

# compound-string, unit-of-measure, IC50
measured = [
    ("C[C@H]1C[C@@](O)(CC(=O)O)[C@]2(O)O[C@@H]3C[C@@]4(C=O)[C@@H](CC[C@@H]5[C@@H]4CC[C@]4(C)[C@@H](C6=CC(=O)OC6)CC[C@]54O)C[C@H]3O[C@H]2O1", "µM", 1),
]

Next up:
Recorded IC50 for "COC(=O)[C@@]1(C)C[C@@H](C)O[C@H]1O[C@@H]1C[C@H]2CC[C@@H]3[C@H](CC[C@]4(C)[C@@H](C5=CC(=O)OC5)C[C@@H](O)[C@]34O)[C@@]2(C(=O)O)C[C@H]1O" , please? 5.2

---

# System: PANC-1
# assay-explanation: Antiproliferative activity against human PANC1 cells assessed as reduction in cell viability after 72 hrs by WST-8 assay
# Assay type: functional, cell-based
# condition-notes: PANC-1, 72 h
experimental-endpoint: IC50 (nM)
Answers are plain numbers, in nM.

Take a look at these entries with their results.
# compound-string, unit-of-measure, IC50
data = [
    ("C[C@]12CC[C@H]3[C@@H](CC[C@@H]4C[C@H](O[C@@H]5O[C@H](CO)[C@@H](O)[C@@H](O)[C@H]5O)CC[C@@]43COC=O)[C@@]1(O)CC[C@@H]2C1=CC(=O)OC1", "nM", 250),
    ("C[C@]12CC[C@H]3[C@@H](CC[C@@H]4C[C@H](O[C@@H]5O[C@H](CO)[C@@H](O)[C@@H](O[C@H]6O[C@H](CO)[C@@H](O)[C@H](O)[C@H]6O)[C@H]5O)CC[C@@]43CO)[C@@]1(O)CC[C@@H]2C1=CC(=O)OC1", "nM", 80),
    ("C[C@]12CC[C@H]3[C@@H](CC[C@@H]4C[C@@H](O)[C@H](O)C[C@@]43CO)[C@@]1(O)CC[C@@H]2C1=CC(=O)OC1", "nM", 5100),
    ("C[C@]12CC[C@H]3[C@@H](CC[C@@H]4C[C@H](O[C@@H]5O[C@H](CO)[C@@H](O)[C@H](O[C@H]6O[C@H](CO)[C@@H](O)[C@H](O)[C@H]6O)[C@H]5O)CC[C@@]43CO)[C@@]1(O)CC[C@@H]2C1=CC(=O)OC1", "nM", 70),
    ("C[C@H]1O[C@@H](O[C@@H]2CC[C@@]34CO[C@@]5(CC[C@@H]3C2)[C@@H]4CC[C@]2(C)[C@H](C3=CC(=O)OC3)CC[C@@H]25)[C@H](O)[C@H](O)[C@@H]1O", "nM", 4600),
]

Dear colleague, could you send me IC50 for each of the items below? Thanks.
1. Nc1ccn([C@@H]2O[C@H](CO)[C@@H](O)C2(F)F)c(=O)n1
2. C[C@]12CC[C@H]3[C@@H](CC[C@@H]4C[C@H](O[C@@H]5O[C@H](CO)[C@@H](O)[C@@H](O)[C@H]5O)CC[C@@]43CO)[C@@]1(O)CC[C@@H]2C1=CC(=O)OC1
3. C[C@]12CC[C@H]3[C@@H](CC[C@@H]4C[C@@H](O[C@@H]5O[C@H](CO)[C@@H](O)[C@@H](O)[C@H]5O)CC[C@@]43C=O)[C@@]1(O)CC[C@@H]2C1=CC(=O)OC1

1: 5900; 2: 280; 3: 150

---

# Test system: HeLa
# assay-explanation: Antiproliferative activity against human HeLa cells assessed as reduction in cell viability after 72 hrs by WST-8 assay
# Type: functional, cell-based
# label = Criterion met if IC50 < 600 nM else Criterion not met

Answered cases to consult:
# compound-string, label-class
rows = [
    ("C[C@]12CC[C@H]3[C@@H](CC[C@@H]4C[C@H](O[C@@H]5O[C@H](CO)[C@@H](O)[C@@H](O)[C@H]5O)CC[C@@]43COC=O)[C@@]1(O)CC[C@@H]2C1=CC(=O)OC1", "Criterion not met"),
    ("C[C@]12CC[C@H]3[C@@H](CC[C@@H]4C[C@@H](O)[C@H](O)C[C@@]43C=O)[C@@]1(O)[C@H](O)C[C@@H]2C1=CC(=O)OC1", "Criterion not met"),
]

Dear colleague, could you confirm whether IC50 of "C[C@H]1C[C@@](O)(CC(=O)O)[C@]2(O)O[C@@H]3C[C@@]4(C=O)[C@@H](CC[C@@H]5[C@@H]4CC[C@]4(C)[C@@H](C6=CC(=O)OC6)CC[C@]54O)C[C@H]3O[C@H]2O1" falls below 600 nM? Thanks. Criterion not met

What would you report for "C[C@]12CC[C@H]3[C@@H](CC[C@@H]4C[C@H](O[C@@H]5O[C@H](CO)[C@@H](O)[C@H](O[C@H]6O[C@H](CO)[C@@H](O)[C@H](O)[C@H]6O)[C@H]5O)CC[C@@]43CO)[C@@]1(O)CC[C@@H]2C1=CC(=O)OC1" ? Criterion met

What would you report for "C[C@]12CC[C@H]3[C@@H](CC[C@@H]4C[C@H](O[C@@H]5O[C@H](CO)[C@@H](O)[C@@H](O)[C@H]5O)CC[C@@]43CO)[C@@]1(O)CC[C@@H]2C1=CC(=O)OC1" ? Criterion met

What would you report for "C[C@@H]1C[C@H](O)[C@]2(O)O[C@@H]3C[C@@]4(C=O)[C@@H](CC[C@@H]5[C@@H]4CC[C@]4(C)[C@@H](C6=CC(=O)OC6)CC[C@]54O)C[C@H]3O[C@@H]2O1" ? Criterion not met

---

# Tested on: HeLa
# assay-explanation: Antiproliferative activity against human HeLa cells assessed as reduction in cell viability after 72 hrs by WST-8 assay
# Assay type: functional, cell-based
pIC50: −log10 of the molar value.
experimental-endpoint: pIC50

Take a look at these entries with their results.
# compound-string, pIC50
data = [
    ("C[C@H]1O[C@@H](O[C@@H]2CC[C@@]34CO[C@@]5(CC[C@@H]3C2)[C@@H]4CC[C@]2(C)[C@H](C3=CC(=O)OC3)CC[C@@H]25)[C@H](O)[C@H](O)[C@@H]1O", "< 5.00"),
    ("C[C@]12CC[C@H]3[C@@H](CC[C@@H]4C[C@@H](O)[C@H](O)C[C@@]43CO)[C@@]1(O)CC[C@@H]2C1=CC(=O)OC1", "< 5.00"),
]

Enter reported pIC50 observed with HeLa for "C[C@]12CC[C@H]3[C@@H](CC[C@@H]4C[C@@H](O[C@@H]5O[C@H](CO)[C@@H](O)[C@@H](O)[C@H]5O)CC[C@@]43C=O)[C@@]1(O)CC[C@@H]2C1=CC(=O)OC1" 6.42
